# test_protocol: NCI Yeast Anticancer Drug Screen. Data for the sgs1 strain (AID 173);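 also: 0% = growth of vehicle-only control cultures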
# condition_info: S. cerevisiae sgs1 mutant, at 1.2 µM, stronger effect = higher value
About 79,000 compounds went through this panel and 15% of them were active in at least one assay; those are over-represented in the sample as a whole.
measured_attribute: growth inhibition (%)
Give the quantity in %, number only.

Solved cases below.
>>> measurement("c1ccc2c(c1)sc1nc3ccncc3nc12")
-5
>>> measurement("O=CNc1ccc2c(c1)C(=O)c1ccccc1-2")
-2
>>> measurement("O=C(c1ccc(Cl)cc1Cl)C(Cl)Cl")
-14
>>> measurement("CC(C)(Br)C(=O)/C=C/c1ccc(Cl)c(Cl)c1")
-1
>>> measurement("O=Nc1cccnc1N=O")
18

Q) For NC(=S)N/N=C\c1nccc2ccccc12 , write its growth inhibition.
A) -3

Q) For O=[N+]([O-])c1cccc([N+](=O)[O-])c1S(=O)(=O)c1ccccc1 , write its growth inhibition.
A) 22

Q) For COc1cc(C2c3cc4c(cc3OC(NNc3ccccc3)C2C)OCO4)cc(OC)c1OC (configuration not stated) , write its growth inhibition.
A) 29

Q) For O=C(CCCN1CCC2(CC1)CC(=O)N(N1CCCCCC1)C2=O)c1ccc(F)cc1 , write its growth inhibition.
A) 43

Q) For CC(/C=C/c1ccc2c(c1)OCO2)[N+](=O)[O-] (configuration not stated) , write its growth inhibition.
A) 30

Q) For N/C(=N\OC(=O)NC(Cl)=C(Cl)Cl)c1cc(C(F)(F)F)cc(C(F)(F)F)c1 , write its growth inhibition.
A) -22

Q) For Cn1c(=O)c2ccccc2c2ccccc21 , write its growth inhibition.
A) -2
